Can you tell me Nav1.1 current amplification rate (%) for the items I'm about to list?
assayed_target: human Nav1.1 (Homo sapiens)
Construct: host or cells: HEK293
protocol_summary: Amplification of Nav1.1-derived voltage-dependent sodium current (Nav1.1 current), cell line stably expressing human Nav1.1, automated patch clamp
Assay type: cell-based
details: compound 50 μmol/L; HEK293 stably expressing human Nav1.1
Expressed in %, but write only the number.

Indicate the recorded Nav1.1 current amplification rate (%) value for this molecule: CC1CC=C(c2ccc(=O)n(CC(=O)Nc3ccnc(C4=CCN(C)C4)c3)n2)CC1 (racemic) [Example 371]
64

Indicate the recorded Nav1.1 current amplification rate (%) value for this molecule: Cc1nc(N2CCN(C(=O)Cn3nc(C4=CCC(C)CC4)ccc3=O)CC2)no1 (stereo not drawn) [Example 406]
68

Indicate the recorded Nav1.1 current amplification rate (%) value for this molecule: CC1CC=C(c2ccc(=O)n(CC(=O)Nc3ccc4ncccc4c3)n2)CC1 (racemic) [Example 357]
43

====

assayed_target: human Nav1.5 (Homo sapiens)
Construct: expressed in transfected cells; host or cells: CHO-K1 (T-REx System, ThermoFisher Scientific)
protocol_summary: Amplification of Nav1.5-derived voltage-dependent sodium current (Nav1.5 current), cell line stably expressing human Nav1.5, automated patch clamp
Assay type: cell-based
details: 10 μmol/L compound; change of the area under the curve of Nav1.5 current (Test Result 1)
Description: Test 2: Evaluation of the Amplification in Nav1.5-Derived Voltage-Dependent Sodium Current (Nav1.5 Current) by Using a Cell Line Stably Expressing Human Nav1.5 A CHO-K1 cell line (Chinese hamster ovary) stably expressing human Nav1.5 (Gene Bank Accession No: P000326.2) was obtained by using purchased T-Rex System (ThermoFisher Scientific, USA), and used for the present test. […]
// returns not met unless Nav1.5 current amplification rate (%) is strictly below 30%, in which case met

Does the reported Nav1.5 current amplification rate (%) of the following compound sit strictly below 30%? CC1(C)CC=C(c2ccc(=O)n(CC(=O)N3CCN(c4cncc(F)c4)CC3)n2)CC1
met

Does the reported Nav1.5 current amplification rate (%) of the following compound sit strictly below 30%? CN1CCN(c2cccc3c2CCN3C(=O)Cn2nc(C3=CCC(C)(C)CC3)ccc2=O)CC1
met

Does the reported Nav1.5 current amplification rate (%) of the following compound sit strictly below 30%? O=C(Cn1nc(C2=CCC(C(F)(F)F)CC2)ccc1=O)Nc1ccc2ocnc2c1 (centres unmarked)
met

Does the reported Nav1.5 current amplification rate (%) of the following compound sit strictly below 30%? CC1(C)CC=C(c2ccc(=O)n(CC(=O)Nc3ccn4ccnc4c3)n2)C1
met

Does the reported Nav1.5 current amplification rate (%) of the following compound sit strictly below 30%? CC1CC=C(c2ccc(=O)n(CC(=O)N3CCN(c4cncc(F)c4)CC3)n2)CC1 (racemic)
not met

Does the reported Nav1.5 current amplification rate (%) of the following compound sit strictly below 30%? CC1CCN(c2ccc(=O)n(CC(=O)Nc3ccc4oc(=O)n(C)c4c3)n2)CC1
met

Does the reported Nav1.5 current amplification rate (%) of the following compound sit strictly below 30%? COc1cc(C2=CCC(C)CC2)nn(CC(=O)N2CCc3c(N4CCOCC4)cccc32)c1=O (racemic)
not met

Does the reported Nav1.5 current amplification rate (%) of the following compound sit strictly below 30%? CC1CC=C(c2ccc(=O)n(CC(=O)N3CCc4cc(N5CCOCC5)ccc43)n2)CC1 (racemic)
not met

Does the reported Nav1.5 current amplification rate (%) of the following compound sit strictly below 30%? O=C(Cn1nc(-c2cc(Cl)cs2)ccc1=O)Nc1ccc2ocnc2c1
not met

Does the reported Nav1.5 current amplification rate (%) of the following compound sit strictly below 30%? Cc1noc2cc(NC(=O)Cn3nc(C4=CCC(C)CC4)ccc3=O)ccc12 (racemic)
not met

Does the reported Nav1.5 current amplification rate (%) of the following compound sit strictly below 30%? O=C(Cn1nc(C2=CCC(F)(F)CC2)ccc1=O)N1CCN(c2cncc(F)c2)CC1
met

Does the reported Nav1.5 current amplification rate (%) of the following compound sit strictly below 30%? COc1cc(C2=CCC(C)CC2)nn(CC(=O)Nc2ccc3ocnc3c2)c1=O (centres unmarked)
met

Does the reported Nav1.5 current amplification rate (%) of the following compound sit strictly below 30%? CC1CCN(c2ccc(=O)n(CC(=O)Nc3ccc(C(=O)N4CCCC4)cc3)n2)CC1
met

Does the reported Nav1.5 current amplification rate (%) of the following compound sit strictly below 30%? CC1(C)CC=C(c2ccc(=O)n(CC(=O)Nc3ccc4c(c3)OCC4)n2)CC1
met

====

assayed_target: human Nav1.5 (Homo sapiens, UniProt Q14524)
Construct: expressed in transfected cells; host or cells: CHO-K1 (T-REx System, ThermoFisher Scientific)
Sequence (Q14524 1-2015 isoform Q14524-2): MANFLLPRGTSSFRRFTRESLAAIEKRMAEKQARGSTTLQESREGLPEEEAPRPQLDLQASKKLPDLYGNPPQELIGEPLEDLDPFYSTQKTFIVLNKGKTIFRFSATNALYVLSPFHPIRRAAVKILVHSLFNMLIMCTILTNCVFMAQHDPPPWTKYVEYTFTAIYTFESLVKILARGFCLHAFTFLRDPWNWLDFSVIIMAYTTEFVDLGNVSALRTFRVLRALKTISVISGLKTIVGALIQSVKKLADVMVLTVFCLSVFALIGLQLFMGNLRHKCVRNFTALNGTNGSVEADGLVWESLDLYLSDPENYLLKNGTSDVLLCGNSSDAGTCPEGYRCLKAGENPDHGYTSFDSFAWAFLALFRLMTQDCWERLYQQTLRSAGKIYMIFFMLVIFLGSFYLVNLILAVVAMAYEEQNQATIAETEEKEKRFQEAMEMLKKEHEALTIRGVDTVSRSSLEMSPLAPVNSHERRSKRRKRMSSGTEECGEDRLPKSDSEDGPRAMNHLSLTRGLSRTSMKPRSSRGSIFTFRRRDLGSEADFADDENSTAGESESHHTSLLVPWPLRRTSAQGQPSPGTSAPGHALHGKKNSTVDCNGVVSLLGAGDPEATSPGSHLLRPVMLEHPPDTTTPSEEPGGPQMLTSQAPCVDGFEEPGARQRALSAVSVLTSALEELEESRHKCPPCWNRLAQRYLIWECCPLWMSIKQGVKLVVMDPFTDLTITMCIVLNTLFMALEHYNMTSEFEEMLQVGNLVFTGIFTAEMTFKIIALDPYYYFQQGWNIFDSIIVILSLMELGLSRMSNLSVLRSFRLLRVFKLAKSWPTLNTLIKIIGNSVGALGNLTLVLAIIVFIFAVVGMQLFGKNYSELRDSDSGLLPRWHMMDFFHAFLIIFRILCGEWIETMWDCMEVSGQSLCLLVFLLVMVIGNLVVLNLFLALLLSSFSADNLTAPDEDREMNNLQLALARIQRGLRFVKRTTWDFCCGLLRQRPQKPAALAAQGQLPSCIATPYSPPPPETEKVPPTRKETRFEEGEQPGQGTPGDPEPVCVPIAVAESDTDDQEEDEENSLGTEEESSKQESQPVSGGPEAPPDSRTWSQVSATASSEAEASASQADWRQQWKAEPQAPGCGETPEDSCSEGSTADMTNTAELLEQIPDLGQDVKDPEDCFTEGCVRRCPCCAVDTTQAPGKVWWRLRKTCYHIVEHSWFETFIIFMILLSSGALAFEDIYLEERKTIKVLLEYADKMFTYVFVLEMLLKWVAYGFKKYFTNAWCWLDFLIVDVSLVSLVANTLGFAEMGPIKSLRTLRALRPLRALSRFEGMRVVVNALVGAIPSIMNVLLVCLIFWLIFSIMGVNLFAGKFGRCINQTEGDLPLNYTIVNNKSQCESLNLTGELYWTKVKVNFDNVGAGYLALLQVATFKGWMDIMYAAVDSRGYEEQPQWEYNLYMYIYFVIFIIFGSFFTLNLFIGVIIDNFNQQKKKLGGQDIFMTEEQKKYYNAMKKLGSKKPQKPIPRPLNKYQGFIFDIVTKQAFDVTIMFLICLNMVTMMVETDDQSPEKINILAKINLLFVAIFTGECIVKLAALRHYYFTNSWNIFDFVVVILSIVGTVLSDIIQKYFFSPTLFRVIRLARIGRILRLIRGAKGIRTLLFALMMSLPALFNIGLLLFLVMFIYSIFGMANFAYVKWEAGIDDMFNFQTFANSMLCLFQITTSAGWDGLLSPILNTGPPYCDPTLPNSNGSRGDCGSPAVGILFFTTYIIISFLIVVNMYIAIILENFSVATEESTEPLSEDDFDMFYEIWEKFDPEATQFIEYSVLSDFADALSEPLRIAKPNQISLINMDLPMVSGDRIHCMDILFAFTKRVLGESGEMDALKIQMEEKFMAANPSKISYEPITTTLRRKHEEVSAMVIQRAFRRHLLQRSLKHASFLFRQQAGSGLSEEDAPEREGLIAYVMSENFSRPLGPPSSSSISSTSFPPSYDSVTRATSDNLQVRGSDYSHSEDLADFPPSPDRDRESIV
protocol_summary: Amplification of Nav1.5-derived voltage-dependent sodium current (Nav1.5 current), cell line stably expressing human Nav1.5, automated patch clamp
Assay type: cell-based
details: compound 1 μmol/L; CHO-K1 stably expressing human Nav1.5
Source text: Test 2: Evaluation of the Amplification in Nav1.5-Derived Voltage-Dependent Sodium Current (Nav1.5 Current) by Using a Cell Line Stably Expressing Human Nav1.5 A CHO-K1 cell line (Chinese hamster ovary) stably expressing human Nav1.5 (Gene Bank Accession No: P000326.2) was obtained by using purchased T-Rex System (ThermoFisher Scientific, USA), and used for the present test. […]
Can you tell me Nav1.5 current amplification rate (%) for the items I'm about to list?

Indicate the recorded Nav1.5 current amplification rate (%) value for this molecule: CC1CC=C(c2ccc(=O)n(CC(=O)N3CCc4c3ccnc4N3CCOCC3)n2)CC1 (racemic)
30%

Indicate the recorded Nav1.5 current amplification rate (%) value for this molecule: CC1CC=C(c2ccc(=O)n(CC(=O)Nc3ccc4ncncc4c3)n2)CC1 (racemic)
28%

Indicate the recorded Nav1.5 current amplification rate (%) value for this molecule: CC1CC=C(c2ccc(=O)n(CC(=O)Nc3ccc4cncnc4c3)n2)CC1 (racemic)
34%

Indicate the recorded Nav1.5 current amplification rate (%) value for this molecule: CC1CC=C(c2ccc(=O)n(CC(=O)Nc3ccnc(N4CCOCC4)c3F)n2)CC1 (racemic)
51%

Indicate the recorded Nav1.5 current amplification rate (%) value for this molecule: CC1CC=C(c2ccc(=O)n(CC(=O)Nc3ccn4nncc4c3)n2)CC1 (racemic)
52%

Indicate the recorded Nav1.5 current amplification rate (%) value for this molecule: CC1CC=C(c2ccc(=O)n(CC(=O)Nc3ccc4cnnn4c3)n2)CC1 (racemic)
46%

Indicate the recorded Nav1.5 current amplification rate (%) value for this molecule: CC1CC=C(c2ccc(=O)n(CC(=O)N3CCc4c(N5CCOCC5)cccc43)n2)CC1 (racemic)
32%

Indicate the recorded Nav1.5 current amplification rate (%) value for this molecule: Cc1nccn1-c1ccc(NC(=O)Cn2nc(C3=CCC(C)CC3)ccc2=O)cc1 (racemic)
112%
